test_system: Bromodomain-containing protein 4 (Homo sapiens)
assay_procedure: Inhibition of human recombinant His-tagged BRD4 BD2 domain using H-SGRGK(Ac)GGK(Ac)GLGK-(Ac)GGAK(Ac)RHRK(Biotin)-OH as substrate preincubated with enzyme for 30 mins followed by substrate addition measured after 30 mins by AlphaScreen assay
pIC50: −log10 of the molar value.
property_name: pIC50

- Cc1cc(-c2nc3sc4c(c3c(=O)[nH]2)CCN(C)C4)cc(C)c1OCCCCCC(=O)NO: 5.69

###

assay_procedure: Oral bioavailability in Sprague-Dawley rat at 30 mg/kg measured up to 1440 mins by UPLC-QTOF/MS analysis
Format: ADME, organism-based
study_conditions: in vivo
property_name: bioavailability (%)

- Cc1cc(-c2nc3sc4c(c3c(=O)[nH]2)CCN(C)C4)cc(C)c1OCCCCCC(=O)NO: 40.5

###

assay_procedure: Cmax in Sprague-Dawley rat at 30 mg/kg, po measured up to 1440 mins by UPLC-QTOF/MS analysis
Type: ADME, organism-based
Set-up: dose 30 mg/kg, route oral
study_conditions: in vivo
property_name: Cmax

- Cc1cc(-c2nc3sc4c(c3c(=O)[nH]2)CCN(C)C4)cc(C)c1OCCCCCC(=O)NO: 5360 ng/mL

###

test_system: UniProtKB Q9UBN7
Sequence (Q9UBN7 whole entry): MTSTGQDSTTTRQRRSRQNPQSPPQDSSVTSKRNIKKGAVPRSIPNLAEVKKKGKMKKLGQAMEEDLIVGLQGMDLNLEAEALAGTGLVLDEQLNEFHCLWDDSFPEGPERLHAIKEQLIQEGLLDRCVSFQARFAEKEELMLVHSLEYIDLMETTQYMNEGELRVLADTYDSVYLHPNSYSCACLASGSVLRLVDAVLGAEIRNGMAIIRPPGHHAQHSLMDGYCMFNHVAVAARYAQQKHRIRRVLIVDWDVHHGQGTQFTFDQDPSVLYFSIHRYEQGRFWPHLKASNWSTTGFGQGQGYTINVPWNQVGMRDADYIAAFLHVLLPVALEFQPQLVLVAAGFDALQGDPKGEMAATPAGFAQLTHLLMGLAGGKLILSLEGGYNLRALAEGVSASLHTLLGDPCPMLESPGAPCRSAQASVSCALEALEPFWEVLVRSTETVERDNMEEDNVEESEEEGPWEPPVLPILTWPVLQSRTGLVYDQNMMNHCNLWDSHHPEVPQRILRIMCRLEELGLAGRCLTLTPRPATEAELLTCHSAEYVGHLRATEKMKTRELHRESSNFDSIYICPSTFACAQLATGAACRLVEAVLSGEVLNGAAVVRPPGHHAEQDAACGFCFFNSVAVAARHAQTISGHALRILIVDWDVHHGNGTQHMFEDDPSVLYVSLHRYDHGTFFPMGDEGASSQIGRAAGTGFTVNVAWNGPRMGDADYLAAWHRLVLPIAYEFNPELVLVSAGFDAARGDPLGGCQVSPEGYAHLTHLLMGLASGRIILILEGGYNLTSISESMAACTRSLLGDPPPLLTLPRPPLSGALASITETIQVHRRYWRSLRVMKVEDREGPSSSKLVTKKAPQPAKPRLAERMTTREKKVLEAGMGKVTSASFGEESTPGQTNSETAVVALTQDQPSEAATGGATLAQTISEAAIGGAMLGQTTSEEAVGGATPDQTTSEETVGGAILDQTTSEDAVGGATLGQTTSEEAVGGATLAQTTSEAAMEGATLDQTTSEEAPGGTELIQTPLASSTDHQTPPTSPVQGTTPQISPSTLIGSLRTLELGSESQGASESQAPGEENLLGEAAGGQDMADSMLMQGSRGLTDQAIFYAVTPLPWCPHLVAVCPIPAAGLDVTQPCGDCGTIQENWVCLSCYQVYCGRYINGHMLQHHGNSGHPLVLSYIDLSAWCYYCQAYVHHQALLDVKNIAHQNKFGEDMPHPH
pIC50: −log10 of the molar value.
property_name: pIC50

• Cc1cc(-c2nc3sc4c(c3c(=O)[nH]2)CCN(C)C4)cc(C)c1OCCCC(=O)NO = 6.60
• Cc1noc(C)c1-c1nc2sc3c(c2c(=O)[nH]1)CCN(CC(=O)NO)C3 = 6.34
• Cc1noc(C)c1-c1nc2sc3c(c2c(=O)[nH]1)CCN(CCCCCC(=O)NO)C3 = 6.81
• Cc1cc(-c2nc3sc4c(c3c(=O)[nH]2)CCN(C)C4)cc(C)c1OCc1ccc(C(=O)NO)cc1 = 6.73
• Cc1cc(-c2nc3sc4c(c3c(=O)[nH]2)CCN(C)C4)cc(C)c1OCc1ccc(/C=C/C(=O)NO)cc1 = 6.69

###

test_system: Bromodomain-containing protein 2 (Homo sapiens)
Sequence (P25440 whole entry, the tested form may be a part): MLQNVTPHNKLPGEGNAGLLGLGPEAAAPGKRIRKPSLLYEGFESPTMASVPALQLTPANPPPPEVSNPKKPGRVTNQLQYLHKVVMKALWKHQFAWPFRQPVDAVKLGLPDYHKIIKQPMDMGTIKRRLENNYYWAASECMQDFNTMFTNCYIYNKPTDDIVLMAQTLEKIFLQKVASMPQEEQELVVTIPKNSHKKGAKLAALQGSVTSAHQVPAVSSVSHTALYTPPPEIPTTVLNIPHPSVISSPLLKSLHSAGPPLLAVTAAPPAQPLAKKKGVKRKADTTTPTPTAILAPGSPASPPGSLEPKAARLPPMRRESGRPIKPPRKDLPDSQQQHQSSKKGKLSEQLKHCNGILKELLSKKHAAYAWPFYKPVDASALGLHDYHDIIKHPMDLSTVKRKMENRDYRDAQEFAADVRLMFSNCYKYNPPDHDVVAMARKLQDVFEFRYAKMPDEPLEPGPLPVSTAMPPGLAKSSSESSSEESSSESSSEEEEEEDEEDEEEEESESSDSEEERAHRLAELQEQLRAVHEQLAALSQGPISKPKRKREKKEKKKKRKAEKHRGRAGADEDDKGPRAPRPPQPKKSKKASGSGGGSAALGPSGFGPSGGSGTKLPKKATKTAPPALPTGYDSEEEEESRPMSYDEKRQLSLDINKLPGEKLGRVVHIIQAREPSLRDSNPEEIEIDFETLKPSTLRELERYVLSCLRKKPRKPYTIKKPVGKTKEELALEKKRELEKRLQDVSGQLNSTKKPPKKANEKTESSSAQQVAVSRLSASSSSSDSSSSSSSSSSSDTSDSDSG
assay_procedure: Inhibition of human recombinant His-tagged BRD2 BD1 domain expressed in Escherichia coli BL21(DE3)-R3-pRARE2 cells by AlphaScreen assay
property_name: IC50 (µM)

• Cc1cc(-c2nc3sc4c(c3c(=O)[nH]2)CCN(C)C4)cc(C)c1OCCCCCC(=O)NO = 16.4

###

assay_procedure: AUC (0 to infinity) in Sprague-Dawley rat at 30 mg/kg, iv administered as bolus dose measured up to 1440 mins by UPLC-QTOF/MS analysis
Format: ADME, organism-based
Design: dose 30 mg/kg, route intravenous, time infinity
study_conditions: in vivo
property_name: AUC(0-inf)

• Cc1cc(-c2nc3sc4c(c3c(=O)[nH]2)CCN(C)C4)cc(C)c1OCCCCCC(=O)NO = 156 µg·h/mL

###

Listed next: entries and their corresponding IC50.
Test system: SW-620
assay_procedure: Antiproliferative activity against human SW620 cells assessed as reduction in cell viability measured after 24 to 48 hrs by MTT assay
Format: functional, cell-based
property_name: IC50 (µM)

* Cc1noc(C)c1-c1nc2sc3c(c2c(=O)[nH]1)CCN(CC(=O)NO)C3 | 19.6
* Cc1cc(-c2nc3sc4c(c3c(=O)[nH]2)CCN(CCCCCC(=O)NO)C4)cc(C)c1O | 15.8
* Cc1cc(-c2nc3sc4c(c3c(=O)[nH]2)CCN(C)C4)cc(C)c1OCc1ccc(C(=O)Nc2ccccc2N)cc1 | 5.49
* Cc1cc(-c2nc3sc4c(c3c(=O)[nH]2)CCN(C)C4)cc(C)c1OCCCCCC(=O)Nc1ccccc1N | 9.87
* Cc1noc(C)c1-c1nc2sc3c(c2c(=O)[nH]1)CCN(CCCC(=O)NO)C3 | 9.86
* Cc1noc(C)c1-c1nc2sc3c(c2c(=O)[nH]1)CCN(CCCCCC(=O)NO)C3 | 8.47
* Cc1cc(-c2nc3sc4c(c3c(=O)[nH]2)CCN(C)C4)cc(C)c1OCc1ccc(/C=C/C(=O)NO)cc1 | 2.34
* Cc1cc(-c2nc3sc4c(c3c(=O)[nH]2)CCN(C)C4)cc(C)c1OCCCCCC(=O)NO | 1.78

###

System: HCT-116
assay_procedure: Antiproliferative activity against human HCT116 cells assessed as reduction in cell viability measured after 24 to 48 hrs by MTT assay
Format: functional, cell-based
Documented IC50 across a set of compounds
property_name: IC50 (µM)

* Cc1cc(-c2nc3sc4c(c3c(=O)[nH]2)CCN(C)C4)cc(C)c1OCc1cccc(C(=O)NO)c1 | 5.49
* Cc1cc(-c2nc3sc4c(c3c(=O)[nH]2)CCN(C)C4)cc(C)c1OCc1ccc(C(=O)NO)cc1 | 1.07
* Cc1cc(-c2nc3sc4c(c3c(=O)[nH]2)CCC4)cc(C)c1O | 4.85
* Cc1noc(C)c1-c1nc2sc3c(c2c(=O)[nH]1)CCN(CCCCCC(=O)Nc1ccccc1N)C3 | 15.2
* Cc1cc(-c2nc3sc4c(c3c(=O)[nH]2)CCN(C)C4)cc(C)c1OCc1ccc(C(=O)Nc2ccccc2N)cc1 | 4.32
* CN1CCc2c(sc3nc(-c4ccc(O)cc4)[nH]c(=O)c23)C1 | 8.68
* Cc1cc(-c2nc3sc4c(c3c(=O)[nH]2)CCN(C)C4)cc(C)c1O | 1.33
* COc1cc(OC)c2c(=O)[nH]c(-c3cc(C)c(OCCO)c(C)c3)nc2c1 [APABETALONE] | 12.8
* COC(=O)CCCCCN1CCc2c(sc3nc(-c4c(C)noc4C)[nH]c(=O)c23)C1 | 17
* Cc1cc(-c2nc3sc4c(c3c(=O)[nH]2)CCN(C)C4)cc(C)c1OCCCCCC(=O)NO | 0.45
* Cc1noc(C)c1-c1nc2sc3c(c2c(=O)[nH]1)CCN(CCCC(=O)NO)C3 | 18
* Cc1cc(-c2nc3sc4c(c3c(=O)[nH]2)CCCC4)cc(C)c1O | 5.41
* Cc1noc(C)c1-c1nc2sc3c(c2c(=O)[nH]1)CCN(CCCCCC(=O)NO)C3 | 15.3
* Cc1cc(-c2nc3sc4c(c3c(=O)[nH]2)CCN(C)C4)cc(C)c1OCc1ccc(/C=C/C(=O)NO)cc1 | 0.92
* Cc1noc(C)c1-c1nc2sc3c(c2c(=O)[nH]1)CCN(C)C3 | 9.77
* O=c1[nH]c(-c2ccc(O)cc2)nc2sc3c(c12)CCCC3 | 9.73
